B1: MAGEA6 (parent)
chain: KISGGPRISYPLLHEWALREGEE

variants of: B1; assay: protein stability index of a GFP-peptide fusion (GPS, HEK-293T) (PSI 1-6); higher = more stable; details: c terminus: native;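 further: lentivirally expressed fusions sorted by FACS into six bins by GFP to DsRed ratio, PSI derived from sequencing read proportions per bin multiplied by bin number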
Please respond with reported protein stability index for every item in the list.
Numbers only.

R19K ... 2.08

Please give protein stability index, item by item, for the list that follows.
1. E23A
2. P11I

-- reply
1: 1.23; 2: 2.41
